# ASSAY_PROCEDURE: Inhibition of trypsin-like activity of beta2 subunit of 20S proteasome in human erythrocytes using Boc-LRR-MCA as substrate preincubated with enzyme for 10 mins followed by substrate addition and measured after 3 hrs by fluorescence spectrophotometric analysis
Listing of entries alongside the reported IC50.

- MOL_SMILES: "C=C1CC[C@H]2C(C)(C)[C@H](O)CC[C@]2(C)[C@H]1C[C@]12O[C@H]1C(=O)C(COC(=O)C[C@H](C)O)=CC2=O"
  READING_QUALIFIER: "="
  IC50, µM: 22.5
- MOL_SMILES: "C=C1CC[C@H]2C(C)(C)[C@H](O)CC[C@]2(C)[C@H]1C[C@]12O[C@H]1[C@H](O)C(COC(=O)C[C@H](C)O)=CC2=O"
  READING_QUALIFIER: ">"
  IC50, µM: 100
- MOL_SMILES: "C=C1CC[C@H]2C(C)(C)[C@H](O)CC[C@]2(C)[C@H]1C[C@]12O[C@H]1C(=O)C(CO)=CC2=O"
  READING_QUALIFIER: "="
  IC50, µM: 76.1
- MOL_SMILES: "C=C1CC[C@H]2C(C)(C)[C@H](O)CC[C@]2(C)[C@H]1C[C@]12O[C@H]1[C@H](O)C(COC(=O)[C@H](O)[C@H](C)O)=CC2=O"
  READING_QUALIFIER: ">"
  IC50, µM: 100
- MOL_SMILES: "C=C1CC[C@H]2C(C)(C)[C@H](O)CC[C@]2(C)[C@H]1C[C@]12O[C@H]1C(=O)C(COC(=O)[C@H](O)[C@H](C)O)=CC2=O"
  READING_QUALIFIER: "="
  IC50, µM: 27.9
- MOL_SMILES: "C=C1CC[C@H]2C(C)(C)[C@H](O)CC[C@]2(C)[C@H]1C[C@]12O[C@H]1[C@H](O)C(CO)=CC2=O"
  READING_QUALIFIER: ">"
  IC50, µM: 100
